test system: SF-295; assay: NCI tumour cell line growth inhibition, 48 h
The source made the active and inactive calls. Cut-off read from the data, not from the text of the source: active = GI50 up to about 1.1 µM and inactive = higher.
# output must be one of t = active, f = inactive

Consider the worked cases shown below.
O=c1ccs[nH]1 | f
C=C(C)C(=O)OC1CCC2(C)C(CCC3C2CCC2(C)C(c4ccc(=O)oc4)CC4OC432)C1 (centres undefined) | f
Cc1ccc(OCC2OC(n3cnc4nc(Nc5ccc(Cl)c(Cl)c5)nc(Cl)c43)CC2Oc2ccc(C)cc2)cc1 (centres undefined) | f
O=C(/C=C/c1ccc(O)cc1)c1cc(Cl)ccc1O | f
COc1cc(C2c3cc4c(cc3[C@@H](Nc3cccc(O)c3)C3COC(=O)[C@H]23)OCO4)cc(OC)c1O (some centres undefined) | t
CC(=O)c1c(O)nnc(-c2ccc(Cl)cc2)c1-c1ccc(Cl)cc1 | f
COc1ccc(N2C(=O)C3c4[nH]c5ccc(OC)cc5c4C4CCC(C(C)C)CC4C3C2=O)cc1 (centres undefined) | f
Cc1ccc(C(=O)/C=C2\Nc3ccccc3S\C2=N\CS(=O)(=O)c2ccc(C)cc2)cc1 | f

Prompt: Record lookup: outcome of this test for CN(C)c1ccc(/C=C(\NC(=O)c2ccccc2)c2nc3cncnc3[nH]2)cc1 ?
Completion: f

Prompt: Also CC1=NNC(=S)NCCCN2CCN(CCCNC(=S)NN=C(C)C=NNC(=S)NCCCN3CCN(CCCNC(=S)NN=C1)CC3)CC2 , if possible.
Completion: f

---

tested on: RPMI-8226; test: NCI tumour cell line growth inhibition, 48 h
The source made the active and inactive calls. No stated cut-off is given here; in the data, active = GI50 up to about 1.1 µM and inactive = higher.
# output must be one of active, inactive

Prompt: Record lookup: outcome of this test for CCOC(=O)CC(=O)Nc1cccc2sc3ncccc3c(=O)c12 ?
Completion: inactive

Prompt: Also CC1OC(c2ccccc2)=CC(OCc2ccccc2)[C@H]1OCc1ccccc1 (some centres undefined) , if possible.
Completion: inactive

Prompt: Also C=C(C)C(=O)OC1CCC2(C)C(CCC3C2CCC2(C)C(c4ccc(=O)oc4)CC4OC432)C1 (centres undefined) , if possible.
Completion: inactive

Prompt: Also CC(=O)c1ccc(NCc2cc(O)ccc2O)cc1 , if possible.
Completion: inactive

Prompt: Also COc1cc(C2C(Cl)C(=O)N2c2c(C)n(C)n(-c3ccccc3)c2=O)ccc1O (centres undefined) , if possible.
Completion: inactive

Prompt: Also O=[N+]([O-])c1ccc2sc(/C=N/c3ccc(O)cc3)cc2c1 , if possible.
Completion: inactive

Prompt: Also C/C(=C\CBr)CCC(Br)C(C)(C)Br (centres undefined) , if possible.
Completion: inactive

Prompt: Also O=C(O)c1ccc2c(O)c(O)ccc2c1 , if possible.
Completion: inactive

Prompt: Also CCOc1cc2c(cc1O)/C(=N\OC)C[C@@H]1[C@@H]2CC[C@]2(C)[C@@H](O)CC[C@@H]12 , if possible.
Completion: active

Prompt: Also O=C1OCC2OC(=O)c3cc(O)c(O)c(O)c3-c3c(O)c(O)c(O)c4c3C(=O)OC(C2OC(=O)c2cc(O)c(O)c(O)c2-c2c1cc(O)c(O)c2O)C1OC(=O)C2C4=C(O)C(=O)C23Oc2cc(O)c4c(c2[C@H]13)O[C@H](c1ccc(O)c(O)c1)[C@@H](O)C4 (some centres undefined) , if possible.
Completion: inactive

Prompt: Also O=S1(=O)OCCOS(=O)(=O)C1(I)I , if possible.
Completion: inactive

Prompt: Also COCn1c(C)c(C)c2c(=O)oc(N(C)C)nc21 , if possible.
Completion: inactive

Prompt: Also O=C1c2c(Br)sc(Br)c2C(=O)C1(O)O , if possible.
Completion: inactive

Prompt: Also Nc1cc(C2CCCc3c2[nH]c2ccccc32)ccc1O (centres undefined) , if possible.
Completion: active

Prompt: Also O=C(Cn1c(C(=O)/C=C/c2ccc(Cl)cc2)nc2ccccc21)c1ccc(Cl)cc1 , if possible.
Completion: inactive

Prompt: Also C/C(=N\NC(=N)N)C(CN1CCOCC1)C(c1ccccc1)c1c(O)c2ccccc2oc1=O (centres undefined) , if possible.
Completion: inactive

Prompt: Also Oc1ccc(/C=C/c2cc(O)cc3c2C(c2cc(O)cc(O)c2)C(c2ccc(O)c(O)c2)O3)cc1 (centres undefined) , if possible.
Completion: inactive

---

system: OVCAR-4; experiment: NCI tumour cell line growth inhibition, 48 h
The source made the active and inactive calls. Cut-off read from the data, not from the text of the source: active = GI50 up to about 1.1 µM and inactive = higher.
ENDPOINT: GI50

Prompt: Value lookup for GI50; key = Cc1cc(Cl)ccc1NC(=O)CC1SC(NC(=O)c2ccccc2Cl)=NC1=O (stereo not given)
Completion: 20.9 µM (inactive)

Prompt: Also Cc1ccc(NC(=O)CSc2nnc(Cc3ccccc3)o2)c(C)c1 , if possible.
Completion: > 100 µM (inactive)

Prompt: Also CS/C(=N/C(=O)c1ccccc1Cl)SCCS/C(=N\C(=O)c1ccccc1Cl)SC , if possible.
Completion: > 100 µM (inactive)

---

system: OVCAR-5; assay: NCI tumour cell line growth inhibition, 48 h
Calls of active or inactive are those of the source. Cut-off read from the data, not from the text of the source: active = GI50 up to about 1.1 µM and inactive = higher.
ENDPOINT: GI50

// solved cases for GI50 follow
Nc1cc(C2CCCc3c2[nH]c2ccccc32)ccc1O (centres undefined) | 24.1 µM (inactive)
COc1ccc(N2C(=O)C3c4[nH]c5ccc(OC)cc5c4C4CCC(C(C)C)CC4C3C2=O)cc1 (centres undefined) | > 100 µM (inactive)
C=C(C)C(=O)OC1CCC2(C)C(CCC3C2CCC2(C)C(c4ccc(=O)oc4)CC4OC432)C1 (centres undefined) | 30.4 µM (inactive)

Now examine the next entry.
Prompt: Value lookup for GI50; key = CCOC(=O)C12CCSC1C1(C#N)C(C#N)=CC2(N=P(c2ccccc2)(c2ccccc2)c2ccccc2)n2c(=O)n(-c3ccccc3)c(=O)n21 (centres undefined)
Completion: > 100 µM (inactive)

---

test system: SNB-19; assay: NCI tumour cell line growth inhibition, 48 h
The source made the active and inactive calls. No stated cut-off is given here; in the data, active = GI50 up to about 1.1 µM and inactive = higher.
We begin with a simple list: items and their reported GI50.

// solved cases for GI50 follow
O=C1C=C(C2OC(CO)C(O)C2O)C(=O)N1 (stereo not given) | > 100 µM (inactive)
COc1ccc2cc(NC(=O)N/N=C\c3ccc([N+](=O)[O-])cc3)ccc2c1 | 20.4 µM (inactive)

Prompt: Item: CN(C)c1ccc(/C=C2\C=Cc3ccccc32)cc1 Test system: SNB-19 Read-out: GI50 Value: ?
Completion: 59.2 µM (inactive)

Prompt: Also CCOC(=O)C1C2C1C1C(C(=O)OCC)C21 (stereo not given) , if possible.
Completion: > 100 µM (inactive)

---

system: TK-10; assay: NCI tumour cell line growth inhibition, 48 h
Calls of active or inactive are those of the source. Rule as the data show it: active = GI50 up to about 1.1 µM and inactive = higher.
# output must be one of active, inactive

Consider the worked cases shown below.
CC(=O)c1ccc(NCc2cc(O)ccc2O)cc1 | inactive
O=C(Nc1cc(C(=O)Nc2cccc(S(=O)(=O)O)c2)cc(C(=O)Nc2cccc(S(=O)(=O)O)c2)c1)c1cccc(C(=O)Nc2cc(C(=O)Nc3cccc(S(=O)(=O)O)c3)cc(C(=O)Nc3cccc(S(=O)(=O)O)c3)c2)c1 | inactive
COC(=O)CC[N+]1=CCC(c2ccccc2)(c2ccccc2)O1 | inactive

Prompt: Record lookup: outcome of this test for CC1c2ccccc2Cn2cc3c(c21)C(=O)c1cccc(OP(=O)(O)OCc2ccccc2)c1C3=O (stereo not drawn) ?
Completion: inactive

---

We begin with a simple list: items and their reported GI50.
test system: OVCAR-8; experiment: NCI tumour cell line growth inhibition, 48 h
Calls of active or inactive are those of the source. Cut-off read from the data, not from the text of the source: active = GI50 up to about 1.1 µM and inactive = higher.

// solved cases for GI50 follow
Cc1cc(N(CCC#N)CCC#N)ccc1/C=C1N=C(/C=C\c2ccccc2)OC\1=O | > 100 µM (inactive)
COC(=O)[C@@H]1C[C@H]2[C@H](c3ccccc3Br)[C@@H](OC(C)=O)[C@@H](OCc3ccccc3)ON2O1 | > 100 µM (inactive)

Prompt: Value lookup for GI50; key = Cc1ccc(S(=O)(=O)CC2(Br)CCc3ccccc3C2=O)cc1 (stereo not drawn)
Completion: 27.4 µM (inactive)

---

system: HOP-62; test: NCI tumour cell line growth inhibition, 48 h
Active and inactive are the calls of the source. Cut-off read from the data, not from the text of the source: active = GI50 up to about 1.1 µM and inactive = higher.
ENDPOINT: GI50

COc1ccc2cc(NC(=O)N/N=C\c3ccc([N+](=O)[O-])cc3)ccc2c1 | 19.5 µM (inactive)

Prompt: Item: O=C(NNC(=O)c1ccccc1S)c1ccccc1S [BIS(THIOSALICYL)HYDRAZIDE] Test system: HOP-62 Read-out: GI50 Value: ?
Completion: 15.9 µM (inactive)

Prompt: Also COC(=O)c1ccc(C(=O)OC)c2nc3cc(Cl)ccc3nc12 , if possible.
Completion: > 100 µM (inactive)

Prompt: Also COc1ccc(C(=O)/C=C2\c3ccccc3C(=O)N2C)cc1 , if possible.
Completion: 60.4 µM (inactive)

Prompt: Also OCCN(CCO)c1ncnc2c1sc(=S)n2-c1ccccc1 , if possible.
Completion: > 100 µM (inactive)

Prompt: Also NC1=Nc2ccccc2Sc2ccccc21 , if possible.
Completion: > 100 µM (inactive)

Prompt: Also N=C(N)Nc1nc2cc(N)ccc2o1 , if possible.
Completion: > 100 µM (inactive)

// provenance: ChEMBL document CHEMBL1201862
